Target: human recombinant P2X7 receptor (Homo sapiens, UniProt Q99572)
Sequence (Q99572 whole entry): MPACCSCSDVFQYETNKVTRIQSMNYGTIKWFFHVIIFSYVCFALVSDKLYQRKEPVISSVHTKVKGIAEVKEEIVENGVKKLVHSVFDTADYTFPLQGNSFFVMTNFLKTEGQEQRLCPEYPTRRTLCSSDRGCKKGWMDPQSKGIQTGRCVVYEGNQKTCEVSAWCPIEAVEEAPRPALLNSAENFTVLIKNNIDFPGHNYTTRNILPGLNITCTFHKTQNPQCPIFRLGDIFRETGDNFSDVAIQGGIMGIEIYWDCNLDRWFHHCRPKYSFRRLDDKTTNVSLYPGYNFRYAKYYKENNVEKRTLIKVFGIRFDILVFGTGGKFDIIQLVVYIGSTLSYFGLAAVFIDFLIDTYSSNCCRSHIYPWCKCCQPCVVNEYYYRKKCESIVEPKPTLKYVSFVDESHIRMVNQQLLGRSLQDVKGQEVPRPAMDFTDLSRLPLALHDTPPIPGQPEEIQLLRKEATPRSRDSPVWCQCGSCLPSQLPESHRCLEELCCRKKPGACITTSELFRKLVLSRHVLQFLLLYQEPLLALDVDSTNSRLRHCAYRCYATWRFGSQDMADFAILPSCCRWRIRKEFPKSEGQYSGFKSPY
Experiment: YO-PRO assay (YO-PRO-1 uptake) in HEK cells stably expressing P2X7
Conditions: HEK-293 cells expressing human recombinant P2X7 receptor; ATP 250 μM, 90 minutes; YO-PRO-1 fluorescence (FLIPR tetra); read-out: IC50 (antagonistic activity with respect to the P2X7 receptor)
Protocol: Cell line generation was performed in general according to established molecular cloning protocols. Specifically, RNA was extracted from human whole blood using the Qiagen RNeasy kit (Qiagen, CH) according to the manufacturer's instructions. Subsequently cDNA was made (Superscript II, Invitrogen AG, CH) and the human P2X7 gene (genbank ref. BC011913) was amplified with the following primers: [NT] and [NT] […]
Measured Metric: IC50 (nM)

The examples below pair each entry with its known result.
INSERT INTO results (compound, quantitative_readout) VALUES
  ('CC(O)(c1ccc(Cl)c(C(=O)NCC2(O)CCCCC2)c1)c1cc[nH]c(=O)n1 (single isomer, unassigned) [Example 157]', 9),
  ('COc1nccc(N(C)c2ccc(C)c(C(=O)NCC3(O)CCCCC3)c2)n1', 629);

a = CN(c1ccc(Cl)c(C(=O)NCC2(O)CCCCCC2)c1)c1cc[nH]c(=O)n1
b = CN(c1ccc(Cl)c(C(=O)NCC2(O)CCCCC2)c1)c1ccncn1
c = O=C(NCC1(O)CCCCC1)c1cc(Oc2ccnc(Cl)n2)ccc1Cl
d = COc1ccc(Oc2ccc(Cl)c(C(=O)NCC3(O)CCCCC3)c2)nn1
e = CN(c1ccc(Cl)c(C(=O)NCC2(O)CCC(F)(F)CC2)c1)c1ccnc(=O)[nH]1
Let's sort these by IC50, smallest first. Go ahead? Reply format: the labels, ordered as requested.
a, d, e, c, b
